These measurements were taken from patent US20250276075A1.

study.system: Axl (UniProt P30530)
Sequence (P30530 26-451 limits assumed): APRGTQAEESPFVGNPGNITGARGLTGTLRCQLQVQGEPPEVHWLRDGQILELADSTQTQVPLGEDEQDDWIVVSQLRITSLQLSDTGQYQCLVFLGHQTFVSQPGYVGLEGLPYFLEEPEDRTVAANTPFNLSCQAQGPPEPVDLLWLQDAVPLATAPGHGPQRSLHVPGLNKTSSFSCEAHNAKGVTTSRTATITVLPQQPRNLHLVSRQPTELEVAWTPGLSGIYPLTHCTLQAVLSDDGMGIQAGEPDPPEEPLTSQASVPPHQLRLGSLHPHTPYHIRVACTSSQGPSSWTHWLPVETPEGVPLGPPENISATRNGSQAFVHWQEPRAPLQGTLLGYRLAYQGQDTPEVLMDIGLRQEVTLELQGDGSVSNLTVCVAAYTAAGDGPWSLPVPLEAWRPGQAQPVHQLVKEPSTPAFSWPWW
assay.remarks: ELISA, 1:9 dilution
Measured Affinity ELISA CPE mutant ratio (1:9, pH 6.0/7.4) by item
measured.metric: Affinity ELISA CPE mutant ratio (1:9, pH 6.0/7.4)

{"columns": ["binder", "measured.number"],
 "data": [
  ["LC-F092S (antibody, V domains shown) VH: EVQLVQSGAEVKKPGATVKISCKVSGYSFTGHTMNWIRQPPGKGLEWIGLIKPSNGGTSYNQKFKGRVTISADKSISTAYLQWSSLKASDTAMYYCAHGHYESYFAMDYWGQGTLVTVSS VL: DIQMTQSPSSLSASVGDRVTITCKASQDVSSAVAWYQQKPGQAPRLLIYWASTRHTGVPSRFSGSGSGTEFTLTISSLQPDDFATYYCQEHSSTPLTFGQGTKVEIK", 2.94],
  ["HC-S059I (antibody, V domains shown) VH: EVQLVQSGAEVKKPGATVKISCKVSGYSFTGHTMNWIRQPPGKGLEWIGLIKPSNGGTIYNQKFKGRVTISADKSISTAYLQWSSLKASDTAMYYCAHGHYESYFAMDYWGQGTLVTVSS VL: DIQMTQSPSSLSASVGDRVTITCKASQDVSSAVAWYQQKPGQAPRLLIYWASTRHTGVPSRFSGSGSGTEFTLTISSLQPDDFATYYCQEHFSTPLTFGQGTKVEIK", 2.06],
  ["LC-A032L (antibody, V domains shown) VH: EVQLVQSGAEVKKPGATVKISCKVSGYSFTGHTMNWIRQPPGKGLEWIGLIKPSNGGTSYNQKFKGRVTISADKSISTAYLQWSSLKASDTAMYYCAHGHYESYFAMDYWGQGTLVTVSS VL: DIQMTQSPSSLSASVGDRVTITCKASQDVSSLVAWYQQKPGQAPRLLIYWASTRHTGVPSRFSGSGSGTEFTLTISSLQPDDFATYYCQEHFSTPLTFGQGTKVEIK", 2.27]
]}
